# measurementTarget: human NKp30 (human) (UniProt O14931)
# Sequence (O14931 19-135 limits assumed): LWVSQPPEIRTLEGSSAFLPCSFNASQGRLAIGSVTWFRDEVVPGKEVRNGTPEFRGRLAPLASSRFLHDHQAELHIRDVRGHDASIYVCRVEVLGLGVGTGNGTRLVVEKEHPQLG
# testDetails: BLI, immunoligand on anti-hFc tip
experimentalEndpoint: koff

# binder, experimentalValue
records = [
    ("ΔB7-H6_S3#31-SEED-PGLALA (bispecific antibody, part only; not given: SEED Fc chains and hu225 EGFR Fab, part only) chain, part: DLKVEMMAGGTQITPLNDNVTIFCNIFYSQPLNITIMGITWFWKSLTFDKEVKVFEFYGDHQEAFRPGAIVSPWRLKSGDASLRLPGIQLEEAGEYRCEVVVTPLKAQGTVQLEVVASPAS", "0.0269 s⁻¹"),
    ("ΔB7-H6_S3#21-SEED-PGLALA (bispecific antibody, part only; not given: SEED Fc chains and hu225 Fab, part only) chain, part: DLKVEMMAGGTQITPLNDNVTIFCNIFYSQPLNITLMGITWFWKSLTFDKEVKVFEFWGDHQEAFRPGAIVSPWRLKSGDASLRLPGIQLEEAGEYRCEVVVTPYKAQGTVQLEVVASPAS", "0.0211 s⁻¹"),
    ("ΔB7-H6_wt-SEED-PGLALA (bispecific antibody, part only; not given: SEED Fc chains and hu225 Fab, part only) chain, part: DLKVEMMAGGTQITPLNDNVTIFCNIFYSQPLNITSMGITWFWKSLTFDKEVKVFEFFGDHQEAFRPGAIVSPWRLKSGDASLRLPGIQLEEAGEYRCEVVVTPLKAQGTVQLEVVASPAS", "0.168 s⁻¹"),
    ("ΔB7-H6_S3#19-SEED-PGLALA (bispecific antibody, part only; not given: SEED Fc chains and hu225 Fab, part only) chain, part: DLKVEMMAGGTQITPLNDNVTIFCNIFYSQPLNITQMGITWFWKSLTFDKEVKVFEFWGDHQEAFRPGAIVSPWRLKSGDASLRLPGIQLEEAGEYRCEVVVTPYKAQGTVQLEVVASPAS", "0.0981 s⁻¹"),
]
